System: thromboxane synthetase
Experiment: inhibition of thromboxane production (TxB2 radio-immunoassay, rabbit platelet rich plasma)
Assay type: cell-based
Conditions: Oryctolagus cuniculus, rabbit PRP, adenosine diphosphate and adrenalin, read-out: IC50 (50% inhibition of TxB2)
Measured Property: pIC50
Answers are plain numbers, as −log10 of the molar value.

Guide cases for pIC50, answers given:
Compound	pIC50
COC(=O)C1=C(C)NC(CCn2cnc3ccccc32)=C(C(=O)OC)C1c1cccc(Cl)c1Cl (stereo not drawn)	4.91
CCOC(=O)C1=C(Cn2ccnc2)NC(C)=C(C(=O)OC)C1c1cccc([N+](=O)[O-])c1 (stereo not drawn)	5.30

Could you now consider this next compound?
Given CCOC(=O)C1=C(C)NC(CCn2ccnc2)=C(C(=O)OCC)C1c1ccccc1[N+](=O)[O-] (stereo not drawn) , state its recorded pIC50. 5.64
